method.description: Stability of linkers L1-L4 conjugated to FGF21 (LC-MS)
Type: physicochemical
measurement.conditions: +4° C., 24 hrs
metric: +(2) H2O (%)
Numbers only, in %.

L3-FGF21ΔH-A129C: Linker-3 conjugated to FGF21ΔH-A129C protein (Table 4; Table 5 row L3) (conjugate, UniProt Q9NSA1 29-209, looked up, variant H1* A129C, Linker-3 attached) Fibroblast growth factor 21: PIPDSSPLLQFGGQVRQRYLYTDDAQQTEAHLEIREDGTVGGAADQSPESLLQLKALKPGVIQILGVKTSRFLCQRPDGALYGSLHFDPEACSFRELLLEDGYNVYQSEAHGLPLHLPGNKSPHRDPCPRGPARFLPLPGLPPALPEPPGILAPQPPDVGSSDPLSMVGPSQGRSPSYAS | 8
L4-FGF21ΔH-A129C: Linker-4 conjugated to FGF21ΔH-A129C protein (Table 4; Table 5 row L4) (conjugate, UniProt Q9NSA1 29-209, looked up, variant H1* A129C, Linker-4 attached) Fibroblast growth factor 21: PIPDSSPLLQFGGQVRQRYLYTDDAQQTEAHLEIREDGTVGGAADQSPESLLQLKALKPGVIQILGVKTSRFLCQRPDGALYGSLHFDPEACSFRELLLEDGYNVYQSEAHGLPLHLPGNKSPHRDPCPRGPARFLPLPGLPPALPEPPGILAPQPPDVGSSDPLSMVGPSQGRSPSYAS | 7

Attention now turns to another entry.
Task: Supply reported +(2) H2O belonging to this molecule: L2-FGF21ΔH-A129C: Linker-2 conjugated to FGF21ΔH-A129C protein (Table 4; Table 5 row L2) (conjugate, UniProt Q9NSA1 29-209, looked up, variant H1* A129C, Linker-2 attached) Fibroblast growth factor 21: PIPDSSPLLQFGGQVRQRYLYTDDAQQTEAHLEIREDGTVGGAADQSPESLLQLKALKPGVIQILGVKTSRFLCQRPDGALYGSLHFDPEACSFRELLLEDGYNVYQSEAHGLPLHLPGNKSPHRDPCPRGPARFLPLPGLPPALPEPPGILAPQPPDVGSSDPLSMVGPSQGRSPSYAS
Output: 8

Provenance of the data: patent US8722622B2
